// data source = paper PMC11784026

Assay: Plasma pharmacokinetics after single ascending doses (SAD), phase 1
Format: in vivo, human (healthy adult participants)
Details: human, plasma, single 1-h IV infusion 50 mg, total clearance, n = 6, arithmetic mean ± SD
Protocol: Participants were then discharged on day 3. Plasma and urine PK parameters were summarized for each cohort using descriptive statistics. Analyses using linear models were performed to assess dose proportionality (both single-dose cohorts 1–7 and multiple-dose cohorts 8–10). Dose-linearity of Cmax and AUC across the dose range was assessed by fitting the power model with ln-transformed parameter as response variables and ln-transformed dose (continuous variable) as a fixed effect. […]
Where a SMILES comes first, the peptide text is derived from it. Bridges are numbered along the chain shown (N, C = ends). [ ]: non-standard residue; d: D form. The star is where a group is joined. X1 = O=C(c1ccc(Cl)cc1Cl)*; Dab = NCC[C@H](N)C(=O)O; Abu = CC[C@H](N)C(=O)O; Dap = NC[C@H](N)C(=O)O
recorded-metric: clearance (mL/min)
Record the value in mL/min, omitting the unit from your answer.

Prompt: Data request, read-out clearance, for CC[C@@H]1NC(=O)[C@@H](CC(C)C)NC(=O)[C@H](CCN)NC(=O)[C@@H](NC(=O)[C@H](CN)NC(=O)[C@@H](NC(=O)[C@H](CCN)NC(=O)c2ccc(Cl)cc2Cl)[C@@H](C)O)CCNC(=O)[C@H]([C@@H](C)O)NC(=O)[C@H](CCN)NC(=O)[C@H](CCN)NC1=O [BRII-693] (X1-[Dab]T[Dap][Dab][Dab][dL][Abu][Dab][Dab]T; lactam 4-C; N-terminus assumed)
Completion: 69.5

----------
assay: Plasma pharmacokinetics after multiple ascending doses (MAD), phase 1; type: in vivo, human (healthy adult participants); conditions: human, plasma, iv, 100 mg, Last q6h dose (day 9), 7-day MAD 100 mg q6h × 7, n = 6, median (range); read-out: Tmax
Where a SMILES comes first, the peptide text is derived from it. Bridges are numbered along the chain shown (N, C = ends). [ ]: non-standard residue; d: D form. The star is where a group is joined. X1 = O=C(c1ccc(Cl)cc1Cl)*; Dab = NCC[C@H](N)C(=O)O; Abu = CC[C@H](N)C(=O)O; Dap = NC[C@H](N)C(=O)O
recorded-metric: Tmax (h)
Record the value in h, omitting the unit from your answer.

Prompt: Data request, read-out Tmax, for CC[C@@H]1NC(=O)[C@@H](CC(C)C)NC(=O)[C@H](CCN)NC(=O)[C@@H](NC(=O)[C@H](CN)NC(=O)[C@@H](NC(=O)[C@H](CCN)NC(=O)c2ccc(Cl)cc2Cl)[C@@H](C)O)CCNC(=O)[C@H]([C@@H](C)O)NC(=O)[C@H](CCN)NC(=O)[C@H](CCN)NC1=O [BRII-693] (X1-[Dab]T[Dap][Dab][Dab][dL][Abu][Dab][Dab]T; lactam 4-C; N-terminus assumed)
Completion: 1.18

----------
test: Plasma pharmacokinetics after multiple ascending doses (MAD), phase 1; assay type: in vivo, human (healthy adult participants); conditions: human, plasma, iv, 200 mg, Last q6h dose (day 9), 7-day MAD 200 mg q6h × 7, n = 5, arithmetic mean ± SD
Where a SMILES comes first, the peptide text is derived from it. Bridges are numbered along the chain shown (N, C = ends). [ ]: non-standard residue; d: D form. The star is where a group is joined. X1 = O=C(c1ccc(Cl)cc1Cl)*; Dab = NCC[C@H](N)C(=O)O; Abu = CC[C@H](N)C(=O)O; Dap = NC[C@H](N)C(=O)O
recorded-metric: clearance (mL/min)
Record the value in mL/min, omitting the unit from your answer.

Prompt: Data request, read-out clearance, for CC[C@@H]1NC(=O)[C@@H](CC(C)C)NC(=O)[C@H](CCN)NC(=O)[C@@H](NC(=O)[C@H](CN)NC(=O)[C@@H](NC(=O)[C@H](CCN)NC(=O)c2ccc(Cl)cc2Cl)[C@@H](C)O)CCNC(=O)[C@H]([C@@H](C)O)NC(=O)[C@H](CCN)NC(=O)[C@H](CCN)NC1=O [BRII-693] (X1-[Dab]T[Dap][Dab][Dab][dL][Abu][Dab][Dab]T; lactam 4-C; N-terminus assumed)
Completion: 57.8

----------
test: Plasma pharmacokinetics after multiple ascending doses (MAD), phase 1; type: in vivo, human (healthy adult participants); conditions: human, plasma, iv, 150 mg, Last q6h dose (day 9), 7-day MAD 150 mg q6h × 7, n = 5, arithmetic mean ± SD; read-out: AUC0–6h
Where a SMILES comes first, the peptide text is derived from it. Bridges are numbered along the chain shown (N, C = ends). [ ]: non-standard residue; d: D form. The star is where a group is joined. X1 = O=C(c1ccc(Cl)cc1Cl)*; Dab = NCC[C@H](N)C(=O)O; Abu = CC[C@H](N)C(=O)O; Dap = NC[C@H](N)C(=O)O
recorded-metric: AUC(0-t) (ng·h/mL)
Record the value in ng·h/mL, omitting the unit from your answer.

Prompt: Data request, read-out AUC(0-t), for CC[C@@H]1NC(=O)[C@@H](CC(C)C)NC(=O)[C@H](CCN)NC(=O)[C@@H](NC(=O)[C@H](CN)NC(=O)[C@@H](NC(=O)[C@H](CCN)NC(=O)c2ccc(Cl)cc2Cl)[C@@H](C)O)CCNC(=O)[C@H]([C@@H](C)O)NC(=O)[C@H](CCN)NC(=O)[C@H](CCN)NC1=O [BRII-693] (X1-[Dab]T[Dap][Dab][Dab][dL][Abu][Dab][Dab]T; lactam 4-C; N-terminus assumed)
Completion: 36600

----------
test: Plasma pharmacokinetics after single ascending doses (SAD), phase 1; assay type: in vivo, human (healthy adult participants); settings: human, single 1-h IV infusion 200 mg, plasma, n = 6, arithmetic mean ± SD, read-out: AUC0–6h
Where a SMILES comes first, the peptide text is derived from it. Bridges are numbered along the chain shown (N, C = ends). [ ]: non-standard residue; d: D form. The star is where a group is joined. X1 = O=C(c1ccc(Cl)cc1Cl)*; Dab = NCC[C@H](N)C(=O)O; Abu = CC[C@H](N)C(=O)O; Dap = NC[C@H](N)C(=O)O
recorded-metric: AUC(0-t)
Express the reported value numerically, then name its unit.

Prompt: Data request, read-out AUC(0-t), for CC[C@@H]1NC(=O)[C@@H](CC(C)C)NC(=O)[C@H](CCN)NC(=O)[C@@H](NC(=O)[C@H](CN)NC(=O)[C@@H](NC(=O)[C@H](CCN)NC(=O)c2ccc(Cl)cc2Cl)[C@@H](C)O)CCNC(=O)[C@H]([C@@H](C)O)NC(=O)[C@H](CCN)NC(=O)[C@H](CCN)NC1=O [BRII-693] (X1-[Dab]T[Dap][Dab][Dab][dL][Abu][Dab][Dab]T; lactam 4-C; N-terminus assumed)
Completion: 36700 ng·h/mL

----------
experiment: Plasma pharmacokinetics after single ascending doses (SAD), phase 1; format: in vivo, human (healthy adult participants); conditions: human, single 1-h IV infusion 200 mg, plasma, n = 6, arithmetic mean ± SD
Where a SMILES comes first, the peptide text is derived from it. Bridges are numbered along the chain shown (N, C = ends). [ ]: non-standard residue; d: D form. The star is where a group is joined. X1 = O=C(c1ccc(Cl)cc1Cl)*; Dab = NCC[C@H](N)C(=O)O; Abu = CC[C@H](N)C(=O)O; Dap = NC[C@H](N)C(=O)O
recorded-metric: AUC(0-inf) (ng·h/mL)
Record the value in ng·h/mL, omitting the unit from your answer.

Prompt: Data request, read-out AUC(0-inf), for CC[C@@H]1NC(=O)[C@@H](CC(C)C)NC(=O)[C@H](CCN)NC(=O)[C@@H](NC(=O)[C@H](CN)NC(=O)[C@@H](NC(=O)[C@H](CCN)NC(=O)c2ccc(Cl)cc2Cl)[C@@H](C)O)CCNC(=O)[C@H]([C@@H](C)O)NC(=O)[C@H](CCN)NC(=O)[C@H](CCN)NC1=O [BRII-693] (X1-[Dab]T[Dap][Dab][Dab][dL][Abu][Dab][Dab]T; lactam 4-C; N-terminus assumed)
Completion: 51400

----------
experiment: Plasma pharmacokinetics after multiple ascending doses (MAD), phase 1; type: in vivo, human (healthy adult participants); conditions: human, plasma, iv, 150 mg, Last q6h dose (day 14), 14-day MAD 150 mg q6h × 14, non-Chinese, n = 10, arithmetic mean ± SD; read-out: VZ
Where a SMILES comes first, the peptide text is derived from it. Bridges are numbered along the chain shown (N, C = ends). [ ]: non-standard residue; d: D form. The star is where a group is joined. X1 = O=C(c1ccc(Cl)cc1Cl)*; Dab = NCC[C@H](N)C(=O)O; Abu = CC[C@H](N)C(=O)O; Dap = NC[C@H](N)C(=O)O
recorded-metric: Vd (L)
Record the value in L, omitting the unit from your answer.

Prompt: Data request, read-out Vd, for CC[C@@H]1NC(=O)[C@@H](CC(C)C)NC(=O)[C@H](CCN)NC(=O)[C@@H](NC(=O)[C@H](CN)NC(=O)[C@@H](NC(=O)[C@H](CCN)NC(=O)c2ccc(Cl)cc2Cl)[C@@H](C)O)CCNC(=O)[C@H]([C@@H](C)O)NC(=O)[C@H](CCN)NC(=O)[C@H](CCN)NC1=O [BRII-693] (X1-[Dab]T[Dap][Dab][Dab][dL][Abu][Dab][Dab]T; lactam 4-C; N-terminus assumed)
Completion: 81.4
